Target: Recombinant human CD33 protein (Homo sapiens (Human), UniProt P20138)
Sequence (P20138 18-259): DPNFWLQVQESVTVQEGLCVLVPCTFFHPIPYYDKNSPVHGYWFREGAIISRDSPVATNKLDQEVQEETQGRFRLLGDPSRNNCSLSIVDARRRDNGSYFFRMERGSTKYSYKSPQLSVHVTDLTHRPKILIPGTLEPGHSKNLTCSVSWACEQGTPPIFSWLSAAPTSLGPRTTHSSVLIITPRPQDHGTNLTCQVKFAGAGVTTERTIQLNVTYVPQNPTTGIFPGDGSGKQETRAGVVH
Experiment: CD33 competitive binding assay for HTS drug screen (fluorescent multivalent sialic acid probe)
pEC50: −log10 of the molar value.
measurement-label: pEC50

Examples from the recorded data:
CC(=O)N[C@H]1[C@H]([C@H](O)[C@H](O)CNC(=O)c2cc(C)c(O)c(C)c2)O[C@@](CCN2CCOC[C@@]23CCN(C(=O)c2ccc4[nH]cnc4c2)C3)(C(=O)O)C[C@@H]1O	5.63
CC(=O)N[C@H]1[C@H]([C@H](O)[C@H](O)CNC(=O)c2ccc(=O)[nH]c2)O[C@@](CCN2CCOC[C@@]23CCN(C(=O)OC(C)(C)C)C3)(C(=O)O)C[C@@H]1O	4.99
CC(=O)N[C@H]1[C@H]([C@H](O)[C@H](O)CNC(=O)c2cc(C)c(O)c(C)c2)O[C@@](CCN2CCCC[C@]23CN(C(=O)OC(C)(C)C)C[C@@H]3CO)(C(=O)O)C[C@@H]1O	6.80

P = CC(=O)N[C@H]1[C@H]([C@H](O)[C@H](O)CNC(=O)c2cc(C)c(O)c(C)c2)O[C@@](CCN2CCOC[C@@]23CCN(C(=O)NC2CCCCC2)C3)(C(=O)O)C[C@@H]1O
Q = CC(=O)N[C@H]1[C@H]([C@H](O)[C@H](O)CNC(=O)c2coc(C)c2)O[C@@](CCN2CCOC[C@@]23CCN(C(=O)OC(C)(C)C)C3)(C(=O)O)C[C@@H]1O
Prompt: Between P and Q , whose recorded pEC50 is greater? Kindly state the label of the option you pick.
Response: P
(P: 7.72, Q: 6.88)
